B1: library; numbered along this chain (parent)
chain: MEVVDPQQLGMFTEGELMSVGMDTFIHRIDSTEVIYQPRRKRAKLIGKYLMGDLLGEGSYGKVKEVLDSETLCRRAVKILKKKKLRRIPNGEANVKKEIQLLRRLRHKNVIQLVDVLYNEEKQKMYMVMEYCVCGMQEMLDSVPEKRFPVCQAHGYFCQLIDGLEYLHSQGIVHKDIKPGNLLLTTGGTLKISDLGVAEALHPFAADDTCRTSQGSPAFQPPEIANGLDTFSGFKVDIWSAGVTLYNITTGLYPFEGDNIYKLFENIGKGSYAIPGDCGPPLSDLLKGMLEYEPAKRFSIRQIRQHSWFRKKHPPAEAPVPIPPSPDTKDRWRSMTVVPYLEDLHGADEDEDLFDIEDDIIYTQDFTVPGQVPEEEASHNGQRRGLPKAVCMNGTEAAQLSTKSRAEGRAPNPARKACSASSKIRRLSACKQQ

Variants of: B1
assay-remarks: STK11 functional score (HeLa growth suppression), rescaled enrichment; synonymous median = 1, nonsense median = 0 (normalised score)
reported-conditions: with HeLa; variant type: missense
Could you mark each record Met if its STK11 functional score falls strictly under 0.9, and Not met if it equals or exceeds it?

## Input State whether 0.9 exceeds STK11 functional score recorded for `R426D` .
## Output Not met

## Input hey, is STK11 functional score for `Q112G` lower than 0.9 or not?
## Output Not met

## Input Determine whether this variant shows STK11 functional score lower than 0.9 (ties excluded): `Q159K`
## Output Met

## Input Does the reported STK11 functional score of the following variant sit strictly below 0.9? `V372D`
## Output Not met

## Input Quick check: STK11 functional score of `C151P` under 0.9?
## Output Met

## Input Input `A420L` ; condition: STK11 functional score strictly below 0.9. Does it hold?
## Output Not met

## Input Is 0.9 strictly greater than the variant's reported STK11 functional score? variant: `F219C`
## Output Met

## Input Strictly below 0.9: is that where STK11 functional score of `K388M` sits?
## Output Not met

## Input Dear colleague, could you confirm whether STK11 functional score of `E121L` falls below 0.9? Thanks.
## Output Not met

## Input Input `V34Y` ; condition: STK11 functional score strictly below 0.9. Does it hold?
## Output Not met

## Input # check: STK11 functional score < 0.9 for `S401L`
## Output Not met

The values you see were collected from the supplement of paper PMC12338614.
